Provenance of the data: ChEMBL document CHEMBL3758084

- System: MDCK
- Experiment Notes: Permeability across apical to basolateral side of MDCK cell BBB penetration model expressing human mdr1 at 10 uM incubated for 1 hr by mass spectrometric analysis
- Assay type: ADME, cell-based, Canis lupus familiaris
- Conditions: dog
Measured Metric: permeability

# Structure Smiles String, Measured Metric, Experimental Result
data = [
    ("Cc1c(C(=O)NC2CCN(C(=O)c3ccccc3)CC2)nn(-c2ccc(Cl)cc2Cl)c1-c1ccc(Cl)cc1", "permeability", "< 1%"),
    ("Cc1c(C(=O)NC2CCN(S(=O)(=O)CC(C)C)CC2)nn(-c2ccc(Cl)cc2Cl)c1-c1ccc(Cl)cc1", "permeability", "< 1%"),
    ("Cc1c(C(=O)NC2CCN(S(=O)(=O)CCC(F)(F)F)CC2)nn(-c2ccc(Cl)cc2Cl)c1-c1ccc(Cl)cc1", "permeability", "< 1%"),
    ("CCCCC(=O)N1CCC(NC(=O)c2nn(-c3ccc(Cl)cc3Cl)c(-c3ccc(Cl)cc3)c2C)CC1", "permeability", "< 1%"),
]

---

- Experiment Notes: Drug uptake in Sprague-Dawley rat brain at 10 mg/kg, po after 4 hrs by LC-MS/MS analysis
- Format: ADME, organism-based
- Conditions: read-out: Drug uptake
Measured Metric: concentration at 4 h (ng/g)

# Structure Smiles String, Experimental Result
records = [
    ("CCCOC(=O)N1CCC(NC(=O)c2nn(-c3ccc(Cl)cc3Cl)c(-c3ccc(Cl)cc3)c2C)CC1", 69),
]

---

- Experimental Target: Cannabinoid receptor 2 (Homo sapiens, UniProt P34972)
- Sequence (P34972 whole entry): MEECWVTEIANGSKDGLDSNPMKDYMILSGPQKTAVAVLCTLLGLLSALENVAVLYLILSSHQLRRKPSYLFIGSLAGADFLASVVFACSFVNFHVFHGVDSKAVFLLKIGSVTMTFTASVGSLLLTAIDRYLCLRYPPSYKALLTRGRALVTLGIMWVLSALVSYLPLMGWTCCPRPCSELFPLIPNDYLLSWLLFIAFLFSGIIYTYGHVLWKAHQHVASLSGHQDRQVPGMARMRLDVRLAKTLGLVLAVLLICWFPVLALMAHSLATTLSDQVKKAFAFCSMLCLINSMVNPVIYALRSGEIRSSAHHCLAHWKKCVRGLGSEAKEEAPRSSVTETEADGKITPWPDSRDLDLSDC
pKi: −log10 of the molar value.

# Structure Smiles String, pKi
rows = [
    ("Cc1c(C(=O)NC2CCN(C(=O)OC(C)C)CC2)nn(-c2ccc(Cl)cc2Cl)c1-c1ccc(Cl)cc1", 5.71),
    ("Cc1c(C(=O)NC2CCN(C(=O)c3ccccc3)CC2)nn(-c2ccc(Cl)cc2Cl)c1-c1ccc(Cl)cc1", 5.76),
    ("CCCCC(=O)N1CCC(NC(=O)c2nn(-c3ccc(Cl)cc3Cl)c(-c3ccc(Cl)cc3)c2C)CC1", 5.75),
]

---

Entries and their permeability
- Test system: MDCK
- Experiment Notes: Permeability across apical to basolateral side of MDCK cell BBB penetration model expressing human mdr1 at 10 uM incubated for 1 hr by mass spectrometric analysis
- Type: ADME, cell-based, Canis lupus familiaris
- Conditions: dog

# Structure Smiles String, permeability
records = [
    ("CCCOC(=O)N1CCC(NC(=O)c2nn(-c3ccc(Cl)cc3Cl)c(-c3ccc(Cl)cc3)c2C)CC1", "< 1%"),
    ("Cc1c(C(=O)NC2CCN(C(=O)CC(C)C)CC2)nn(-c2ccc(Cl)cc2Cl)c1-c1ccc(Cl)cc1", "1%"),
    ("CCS(=O)(=O)N1CCC(NC(=O)c2nn(-c3ccc(Cl)cc3Cl)c(-c3ccc(Cl)cc3)c2C)CC1", "< 1%"),
    ("Cc1c(C(=O)NC2CCN(C(=O)OC(C)C)CC2)nn(-c2ccc(Cl)cc2Cl)c1-c1ccc(Cl)cc1", "< 1%"),
    ("Cn1c(=O)c2c(ncn2C)n(C)c1=O", "80%"),
    ("Cc1c(C(=O)NC2CCN(C(=O)C(F)(F)F)CC2)nn(-c2ccc(Cl)cc2Cl)c1-c1ccc(Cl)cc1", "< 1%"),
    ("Cc1c(C(=O)NC2CCN(S(=O)(=O)c3ccccc3)CC2)nn(-c2ccc(Cl)cc2Cl)c1-c1ccc(Cl)cc1", "< 1%"),
    ("Cc1c(C(=O)NC2CCN(C(=O)C3CCCC3)CC2)nn(-c2ccc(Cl)cc2Cl)c1-c1ccc(Cl)cc1", "< 1%"),
]
